measured-on: Ataxin-2 (Homo sapiens) (UniProt Q99700)
Sequence (Q99700 whole entry): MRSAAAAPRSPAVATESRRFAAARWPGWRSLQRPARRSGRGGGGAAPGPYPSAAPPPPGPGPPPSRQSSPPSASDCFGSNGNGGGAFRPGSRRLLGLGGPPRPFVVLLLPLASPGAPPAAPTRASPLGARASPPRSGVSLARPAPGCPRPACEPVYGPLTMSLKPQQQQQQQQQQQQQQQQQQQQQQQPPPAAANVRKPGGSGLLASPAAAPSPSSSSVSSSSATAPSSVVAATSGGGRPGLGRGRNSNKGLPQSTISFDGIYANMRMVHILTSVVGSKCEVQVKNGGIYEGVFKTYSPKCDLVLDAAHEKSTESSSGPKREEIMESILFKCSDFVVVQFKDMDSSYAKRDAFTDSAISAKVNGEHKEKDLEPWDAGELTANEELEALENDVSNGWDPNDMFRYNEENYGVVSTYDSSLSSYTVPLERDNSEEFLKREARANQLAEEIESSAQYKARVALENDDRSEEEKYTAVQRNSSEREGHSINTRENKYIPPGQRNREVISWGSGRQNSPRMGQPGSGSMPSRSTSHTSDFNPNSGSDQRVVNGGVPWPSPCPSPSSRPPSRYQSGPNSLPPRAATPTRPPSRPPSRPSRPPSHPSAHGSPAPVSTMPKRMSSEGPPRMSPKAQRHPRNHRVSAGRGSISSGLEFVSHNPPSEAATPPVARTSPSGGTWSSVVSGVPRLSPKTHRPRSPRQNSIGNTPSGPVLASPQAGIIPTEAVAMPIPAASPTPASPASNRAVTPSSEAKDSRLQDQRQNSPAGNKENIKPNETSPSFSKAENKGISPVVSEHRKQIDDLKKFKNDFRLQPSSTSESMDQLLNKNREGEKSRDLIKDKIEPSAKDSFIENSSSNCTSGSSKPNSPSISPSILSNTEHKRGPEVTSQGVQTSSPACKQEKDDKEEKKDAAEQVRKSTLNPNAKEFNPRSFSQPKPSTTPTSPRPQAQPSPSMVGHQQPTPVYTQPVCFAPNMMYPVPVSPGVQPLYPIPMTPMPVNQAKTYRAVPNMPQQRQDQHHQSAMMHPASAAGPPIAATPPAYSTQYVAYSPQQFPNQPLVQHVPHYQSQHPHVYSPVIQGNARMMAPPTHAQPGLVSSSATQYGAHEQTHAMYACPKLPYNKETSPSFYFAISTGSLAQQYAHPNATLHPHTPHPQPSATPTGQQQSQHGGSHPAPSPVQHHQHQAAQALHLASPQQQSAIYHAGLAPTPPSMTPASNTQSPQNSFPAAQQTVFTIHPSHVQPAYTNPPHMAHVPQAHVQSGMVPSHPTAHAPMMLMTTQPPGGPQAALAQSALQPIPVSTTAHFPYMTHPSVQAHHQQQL
method: qHTS for Inhibitors of ATXN expression.
Format: functional
In all, about 400,000 compounds went through this assay and about 2,100 (0.53%) were called active. Not shown: some 14% with an inconclusive outcome. No rule for the calls is given here. For the sample, actives were picked, then their nearest neighbours and some compounds at random.
Form entry, call: pick from YES = active, NO = inactive

Solved cases below.
- compound: "C=CCS(=O)(=O)c1nc2ccccc2s1"
  qualitative-label: "YES"
- compound: "CCn1nc(NC(=O)COC)c2cc3cc(C)ccc3nc21"
  qualitative-label: "NO"
- compound: "CNc1c2cccc(C)c2nc2c(C(=O)NCCN(C)C)cccc12"
  qualitative-label: "YES"

Input: Entry "COC(=O)c1ccc(C(=O)OC)c(NC(=O)Cc2cccs2)c1" : call = ?
Output: NO

Input: Hi, do you know how "Cc1cccc(-n2nnc(C(=O)N3CCc4ccccc4C3)c2N)c1" came out in this test?
Output: NO

Input: Assay outcome for "CCOC(=O)COc1cccc2c(=O)n(CC(=O)N3CCC(C)CC3)ccc12" : what was it?
Output: NO

Input: Kindly provide the recorded test outcome for the following compound: "Cc1nc2nc(-c3ccc(Cl)cc3)cn2nc1C"
Output: NO

Input: Write down the call the test reported for this compound. Item: "N#Cc1c(N)n(CCCN2CCOCC2)c2nc3ccccc3nc12"
Output: NO

Input: Please state the recorded outcome for this compound: COc1ccc(OCC(=O)OCC(=O)NC2CCCCC2C)cc1 (centres undefined)
Output: NO

---

measured-on: Ataxin-2 (Homo sapiens) (UniProt Q99700)
method: qHTS for Inhibitors of ATXN expression.
Format: functional
Among all 400,000 compounds or so, about 2,100 (0.53%) were called active. About 14% were inconclusive and are not listed. No rule for the calls is given here. The list comes from a sample in which actives are over-represented; it also holds close analogues and randomly drawn compounds.
The categories you may choose from are active, inactive

Answered cases to consult:
- molecule: "CCc1cc(C(=O)c2ccc(C)cc2)c(NC(=O)CCl)s1"
  qualitative-label: "active"
- molecule: "COc1ccc(NC(=O)c2cc3c(=O)n(C)c4ccccc4c3s2)cc1OC"
  qualitative-label: "inactive"
- molecule: "COc1ccc(Cl)cc1NC(=O)COC(=O)c1ccc(C)o1"
  qualitative-label: "inactive"
- molecule: "CC(C)(C)c1ccc(CN2N=Nc3ccccc3S2(=O)=O)cc1"
  qualitative-label: "active"
- molecule: "N#Cc1c(C(F)(F)F)cc(O)n2c1nc1ccccc12"
  qualitative-label: "inactive"
- molecule: "COc1cccc(NC=C2C(=O)CCCC2=O)c1"
  qualitative-label: "inactive"

Input: Test call for this molecule, please: CN(C)CC1CCC/C(=C\c2ccc(OC(=O)/C=C/c3ccccc3)cc2)C1=O (centres undefined)
Output: active

Input: Would you mind telling me which call this test gave "CCOC(=O)c1cc(C(=O)c2cc(Cl)ccc2O)coc1=N" ?
Output: inactive

Input: Hi, do you know how COc1cccc(/C=C2/CCC(CN(C)C)C2=O)c1 (centres undefined) came out in this test?
Output: active

---

measured-on: Ataxin-2 (Homo sapiens) (UniProt Q99700)
method: qHTS for Inhibitors of ATXN expression.
Type: functional
The campaign covered roughly 400,000 compounds. About 2,100 (0.53%) were called active. Roughly 14% stayed inconclusive and do not appear here. No rule for the calls is given here. Only a selection was taken, and actives are over-represented in it overall.
Respond only with the outcome that fits, drawn from active, inactive

Solved entries (count: 5):
- compound: "CCN(CC)CCNC(=O)C(Cl)=C1C(Cl)=C(Cl)C(Cl)=C1Cl"
  qualitative-label: "active"
- compound: "O=c1oc2ccccc2n1CCn1c2ccccc2c2nc3ccccc3nc21"
  qualitative-label: "active"
- compound: "COc1ccc(C)cc1N(C(=O)c1ccccc1F)c1nc2ccccc2s1"
  qualitative-label: "inactive"
- compound: "O=c1c2c(-c3ccccc3)csc2nc2c3ccccc3c(NCCN3CCOCC3)nn12"
  qualitative-label: "inactive"
- compound: "O=c1c(-c2nc3ccccc3s2)cccn1Cc1ccccc1"
  qualitative-label: "inactive"

Input: Dear colleague, could you share the recorded outcome for "CCCCOC(=O)c1ccc(NC(=O)C(=O)NCCN(CC)CC)cc1" when you have a moment?
Output: inactive

Input: How was "CC(=O)c1ccc2cccc3c2c1NC(C)=N3" classified in this test?
Output: inactive

Input: Just curious, what result did "CCC(=O)c1cc2c(C)cc(=O)oc2c(C)c1OC(=O)C(C)C" get here?
Output: inactive

Input: Recorded test call requested for "CCN(CC)c1ccc(N)cc1"
Output: active

Input: Entry COc1ccc(CNC(=O)CN2C(=O)NC(C)(c3ccc(C(C)(C)C)cc3)C2=O)cc1 (configuration not stated) : call = ?
Output: inactive

Input: Hello, I am checking results. What call was entered for CCN(CC)C(=O)C1=C(C)N(Cc2ccc(C(C)(C)C)cc2)C(=O)C(CC(=O)NC(c2ccccc2)c2ccccc2)C1 (configuration not stated) ?
Output: active
